Target of assay: MEK1 (Homo sapiens)
Sequence (Q02750 whole entry): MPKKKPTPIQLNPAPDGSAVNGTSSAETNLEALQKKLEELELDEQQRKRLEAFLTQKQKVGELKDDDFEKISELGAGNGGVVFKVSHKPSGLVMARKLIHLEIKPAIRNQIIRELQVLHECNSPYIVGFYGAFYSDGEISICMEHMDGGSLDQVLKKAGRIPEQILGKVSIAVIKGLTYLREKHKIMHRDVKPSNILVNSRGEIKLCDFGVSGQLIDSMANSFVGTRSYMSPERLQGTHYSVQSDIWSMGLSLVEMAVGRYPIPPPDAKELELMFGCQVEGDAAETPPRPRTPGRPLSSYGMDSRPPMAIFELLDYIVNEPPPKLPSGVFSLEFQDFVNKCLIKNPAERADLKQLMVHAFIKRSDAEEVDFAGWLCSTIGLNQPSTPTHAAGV
Assay notes: In vitro MEK1 kinase assay (ADP-Glo)
Test conditions: recombinant GST-MEK1, GST-ERK2 (inactive) substrate, 10 μM ATP
# note: exactly 0.8 µM is not below, so it is N; use Y for IC50 strictly under it

Cc1nnc([C@]23CC[C@@H](C)[C@H](C)C2C2=CCC4[C@@]5(C)Cc6cc7cc(Cl)ccc7nc6C(C)(C)C5CC[C@@]4(C)[C@]2(C)CC3)o1 (some centres unmarked) [Compound 5d]; N
CC(=O)NNC(=O)C12CCC(C)C(C)C1C1=CCC3C4(C)Cc5cc6cc(Cl)ccc6nc5C(C)(C)C4CCC3(C)C1(C)CC2 (centres unmarked) [Compound 4d]; Y
Cc1nnc([C@]23CC[C@@H](C)[C@H](C)C2C2=CCC4[C@@]5(C)Cc6cc7ccccc7nc6C(C)(C)C5CC[C@@]4(C)[C@]2(C)CC3)o1 (some centres unmarked) [Compound 5a]; N

Just wondering, is IC50 of COc1ccc2nc3c(cc2c1)CC1(C)C(CCC2(C)C1CC=C1C4C(C)C(C)CCC4(C(=O)NNC(C)=O)CCC12C)C3(C)C (centres unmarked) [Compound 4b] below 0.8 µM?
N

Just wondering, is IC50 of C[C@@H]1CC[C@]2(C(=O)O)CC[C@]3(C)C(=CCC4[C@@]5(C)Cc6cc7cc(F)ccc7nc6C(C)(C)C5CC[C@]43C)C2[C@H]1C (some centres unmarked) [Compound 3c] below 0.8 µM?
Y

Just wondering, is IC50 of Cc1nnc([C@]23CC[C@@H](C)[C@H](C)C2C2=CCC4[C@@]5(C)Cc6cc7cc(Cl)ccc7nc6C(C)(C)C5CC[C@@]4(C)[C@]2(C)CC3)s1 (some centres unmarked) [Compound 6d] below 0.8 µM?
N

* * *

Target of assay: MEK1 (Homo sapiens)
Assay notes: In vitro MEK1 kinase assay (ADP-Glo)
Test conditions: recombinant GST-MEK1, GST-ERK2 (inactive) substrate, 10 μM ATP
Field: IC50. Provide a value for each of the compounds that follow.
I'd appreciate it if you included the unit after the number.

Worked examples follow.
C[C@@H]1CC[C@]2(C(=O)O)CC[C@]3(C)C(=CCC4[C@@]5(C)Cc6cc7cc(Cl)ccc7nc6C(C)(C)C5CC[C@]43C)C2[C@H]1C (some centres unmarked) [Compound 3d]; 0.82 µM
CC(=O)NNC(=O)[C@]12CC[C@@H](C)[C@H](C)C1C1=CCC3[C@@]4(C)Cc5cc6cc(F)ccc6nc5C(C)(C)C4CC[C@@]3(C)[C@]1(C)CC2 (some centres unmarked) [Compound 4c]; 0.072 µM
CC(=O)NNC(=O)[C@]12CC[C@@H](C)[C@H](C)C1C1=CCC3[C@@]4(C)Cc5cc6ccccc6nc5C(C)(C)C4CC[C@@]3(C)[C@]1(C)CC2 (some centres unmarked) [Compound 4a]; 37.3 µM

Record IC50 per entry; entries follow.
1. COc1ccc2nc3c(cc2c1)CC1(C)C(CCC2(C)C1CC=C1C4C(C)C(C)CCC4(C(=O)O)CCC12C)C3(C)C (centres unmarked) [Compound 3b]
2. C[C@@H]1CC[C@]2(C(=O)O)CC[C@]3(C)C(=CCC4[C@@]5(C)Cc6cc7ccccc7nc6C(C)(C)C5CC[C@]43C)C2[C@H]1C (some centres unmarked) [Compound 3a]

3.59 µM
18.6 µM
